target: human CD33 variant M120V (human, UniProt P20138 18-364); experiment: flow cytometry, IgG on cells expressing the mutant
Sequence (P20138 18-364 M120V limits assumed): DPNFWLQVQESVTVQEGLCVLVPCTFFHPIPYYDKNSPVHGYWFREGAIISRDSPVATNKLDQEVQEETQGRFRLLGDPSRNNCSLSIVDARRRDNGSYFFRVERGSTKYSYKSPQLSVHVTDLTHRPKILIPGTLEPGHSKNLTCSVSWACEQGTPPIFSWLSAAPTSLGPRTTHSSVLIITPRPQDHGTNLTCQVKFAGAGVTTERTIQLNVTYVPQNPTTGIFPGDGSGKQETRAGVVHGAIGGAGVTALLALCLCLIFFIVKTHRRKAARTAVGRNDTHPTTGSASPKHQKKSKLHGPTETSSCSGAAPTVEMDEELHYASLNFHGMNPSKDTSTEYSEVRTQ
measured.metric: Mean % WT Binding

Record Refmab #4 (antibody, human IgG1, V domains shown, Tested in IgG format; human IgG1 Fc silent (PG-LALA)) VH: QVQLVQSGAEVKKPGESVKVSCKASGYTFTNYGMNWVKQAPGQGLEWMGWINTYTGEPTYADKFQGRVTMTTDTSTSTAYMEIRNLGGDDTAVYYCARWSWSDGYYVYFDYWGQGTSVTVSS VL: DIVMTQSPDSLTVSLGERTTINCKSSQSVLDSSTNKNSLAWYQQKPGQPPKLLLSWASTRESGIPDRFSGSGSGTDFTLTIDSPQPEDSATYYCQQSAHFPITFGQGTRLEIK , field Mean % WT Binding: 100 % of WT
